- test: pH-solubility of linsitinib free base and selected salts (pH 1.5 to 6.5, overnight equilibration, HPLC)
- Type: physicochemical
- assay-context: aqueous solution, pH adjusted with NaOH and HCl, pH 1.5, aqueous buffer, thermodynamic from solid, target pH 1.5; overnight equilibration; * = clear solution, not equilibrium value; read-out: Solubility
- Procedure: The pH-solubility of selected salts (Phosphate 1, L-Malate 1, Esylate 1, and Esylate 2) was evaluated and compared with linsitinib free base. […] If saturation was achieved, the pH of the solution was measured and adjusted to the target pH and additional material was added if needed. […] The final pH of the solution was measured, the solids were filtered and selected samples were analyzed by PXRD. The concentration of linsitinib in the filtrate was quantitated by HPLC (diluted as needed). […]
result-type: solubility
Give the value; after it, write the unit.

compound	solubility
CCS(=O)(=O)O.C[C@]1(O)C[C@@H](c2nc(-c3ccc4ccc(-c5ccccc5)nc4c3)c3c(N)nccn32)C1 [Esylate 1]	64.3 mg/mL
C[C@]1(O)C[C@@H](c2nc(-c3ccc4ccc(-c5ccccc5)nc4c3)c3c(N)nccn32)C1 [Linsitinib free base, reference compound]	54 mg/mL
C[C@]1(O)C[C@@H](c2nc(-c3ccc4ccc(-c5ccccc5)nc4c3)c3c(N)nccn32)C1.O=P(O)(O)O [Phosphate 1]	38.6 mg/mL

# solubility (compound: C[C@]1(O)C[C@@H](c2nc(-c3ccc4ccc(-c5ccccc5)nc4c3)c3c(N)nccn32)C1.O=C(O)C[C@H](O)C(=O)O [L-Malate 1] ) is 82.3 mg/mL

---

- test: pH-solubility of linsitinib free base and selected salts (pH 1.5 to 6.5, overnight equilibration, HPLC)
- Assay type: physicochemical
- assay-context: aqueous solution, pH 5.5, aqueous buffer, thermodynamic from solid, target pH 5.5; overnight equilibration; read-out: Solubility
result-type: solubility

Recorded solubility, per entry:
molecule	solubility
C[C@]1(O)C[C@@H](c2nc(-c3ccc4ccc(-c5ccccc5)nc4c3)c3c(N)nccn32)C1.O=C(O)C[C@H](O)C(=O)O [L-Malate 1]	192 µg/mL
C[C@]1(O)C[C@@H](c2nc(-c3ccc4ccc(-c5ccccc5)nc4c3)c3c(N)nccn32)C1 [Linsitinib free base, reference compound]	1.7 µg/mL
C[C@]1(O)C[C@@H](c2nc(-c3ccc4ccc(-c5ccccc5)nc4c3)c3c(N)nccn32)C1.O=P(O)(O)O [Phosphate 1]	35 µg/mL

Consider the additional molecule presented here.
Value of solubility reported for the molecule CCS(=O)(=O)O.C[C@]1(O)C[C@@H](c2nc(-c3ccc4ccc(-c5ccccc5)nc4c3)c3c(N)nccn32)C1 [Esylate 1] is 51.7 µg/mL

---

- test: pH-solubility of linsitinib free base and selected salts (pH 1.5 to 6.5, overnight equilibration, HPLC)
- Assay type: physicochemical
- assay-context: target pH 3.5; after overnight equilibration
- Description: The pH-solubility of selected salts (Phosphate 1, L-Malate 1, Esylate 1, and Esylate 2) was evaluated and compared with linsitinib free base. […] If saturation was achieved, the pH of the solution was measured and adjusted to the target pH and additional material was added if needed. […] The final pH of the solution was measured, the solids were filtered and selected samples were analyzed by PXRD. The concentration of linsitinib in the filtrate was quantitated by HPLC (diluted as needed). […]
result-type: Final pH
Output spec: single numeric token, no unit.

compound	numeric-result
C[C@]1(O)C[C@@H](c2nc(-c3ccc4ccc(-c5ccccc5)nc4c3)c3c(N)nccn32)C1.O=P(O)(O)O [Phosphate 1]	2.89

Form: compound = CCS(=O)(=O)O.C[C@]1(O)C[C@@H](c2nc(-c3ccc4ccc(-c5ccccc5)nc4c3)c3c(N)nccn32)C1 [Esylate 2] ; Final pH = 3.53

Briefly, Final pH measured for CCS(=O)(=O)O.C[C@]1(O)C[C@@H](c2nc(-c3ccc4ccc(-c5ccccc5)nc4c3)c3c(N)nccn32)C1 [Esylate 1] : 3.50

Query C[C@]1(O)C[C@@H](c2nc(-c3ccc4ccc(-c5ccccc5)nc4c3)c3c(N)nccn32)C1.O=C(O)C[C@H](O)C(=O)O [L-Malate 1] yields Final pH of 3.08

compound C[C@]1(O)C[C@@H](c2nc(-c3ccc4ccc(-c5ccccc5)nc4c3)c3c(N)nccn32)C1 [Linsitinib free base, reference compound] , Final pH observed: 3.64

---

- test: pH-solubility of linsitinib free base and selected salts (pH 1.5 to 6.5, overnight equilibration, HPLC)
- Assay type: physicochemical
- assay-context: target pH 5.0; after overnight equilibration
Hi, to clarify the labels: 1 (yes) covers Final pH from 5 upward, 0 (no) covers anything below 5.

Some entries whose results are on file:
compound	category-label
CCS(=O)(=O)O.C[C@]1(O)C[C@@H](c2nc(-c3ccc4ccc(-c5ccccc5)nc4c3)c3c(N)nccn32)C1 [Esylate 1]	0 (no)
C[C@]1(O)C[C@@H](c2nc(-c3ccc4ccc(-c5ccccc5)nc4c3)c3c(N)nccn32)C1.O=C(O)C[C@H](O)C(=O)O [L-Malate 1]	1 (yes)
C[C@]1(O)C[C@@H](c2nc(-c3ccc4ccc(-c5ccccc5)nc4c3)c3c(N)nccn32)C1 [Linsitinib free base, reference compound]	1 (yes)

Next up:
Hi, just wondering whether C[C@]1(O)C[C@@H](c2nc(-c3ccc4ccc(-c5ccccc5)nc4c3)c3c(N)nccn32)C1.O=P(O)(O)O [Phosphate 1] shows Final pH of 5 or higher.
1 (yes)

---

- test: Equilibrium solubility in bio-relevant media (FaSSGF pH 1.6, FaSSIF pH 6.5)
- Type: physicochemical
- assay-context: FaSSIF (pH 6.5)
# Final pH >= 6 gives 1, anything below gives -1

Examples from the recorded data:
molecule	category-label
C[C@]1(O)C[C@@H](c2nc(-c3ccc4ccc(-c5ccccc5)nc4c3)c3c(N)nccn32)C1 [Linsitinib free base, reference compound]	1
C[C@]1(O)C[C@@H](c2nc(-c3ccc4ccc(-c5ccccc5)nc4c3)c3c(N)nccn32)C1.O=P(O)(O)O [Phosphate 1]	-1

Assess whether reported Final pH for CCS(=O)(=O)O.C[C@]1(O)C[C@@H](c2nc(-c3ccc4ccc(-c5ccccc5)nc4c3)c3c(N)nccn32)C1 [Esylate 2] sits at 6 or higher.
-1

Evaluate CCS(=O)(=O)O.C[C@]1(O)C[C@@H](c2nc(-c3ccc4ccc(-c5ccccc5)nc4c3)c3c(N)nccn32)C1 [Esylate 1] : Final pH at minimum 6?
1

Check the entry C[C@]1(O)C[C@@H](c2nc(-c3ccc4ccc(-c5ccccc5)nc4c3)c3c(N)nccn32)C1.O=C(O)C[C@H](O)C(=O)O [L-Malate 1] : does Final pH equal or exceed 6?
-1

---

- test: pH-solubility of linsitinib free base and selected salts (pH 1.5 to 6.5, overnight equilibration, HPLC)
- Format: physicochemical
- assay-context: target pH 4.0; after overnight equilibration
- Experimental: The pH-solubility of selected salts (Phosphate 1, L-Malate 1, Esylate 1, and Esylate 2) was evaluated and compared with linsitinib free base. […] If saturation was achieved, the pH of the solution was measured and adjusted to the target pH and additional material was added if needed. […] The final pH of the solution was measured, the solids were filtered and selected samples were analyzed by PXRD. The concentration of linsitinib in the filtrate was quantitated by HPLC (diluted as needed). […]
result-type: Final pH
Provide a numeric answer; units are not to be included.

Here is how some compounds turned out for Final pH.
compound	numeric-result
C[C@]1(O)C[C@@H](c2nc(-c3ccc4ccc(-c5ccccc5)nc4c3)c3c(N)nccn32)C1.O=P(O)(O)O [Phosphate 1]	3.69
CCS(=O)(=O)O.C[C@]1(O)C[C@@H](c2nc(-c3ccc4ccc(-c5ccccc5)nc4c3)c3c(N)nccn32)C1 [Esylate 2]	3.99
C[C@]1(O)C[C@@H](c2nc(-c3ccc4ccc(-c5ccccc5)nc4c3)c3c(N)nccn32)C1.O=C(O)C[C@H](O)C(=O)O [L-Malate 1]	3.38

Looking up CCS(=O)(=O)O.C[C@]1(O)C[C@@H](c2nc(-c3ccc4ccc(-c5ccccc5)nc4c3)c3c(N)nccn32)C1 [Esylate 1] , I found its Final pH recorded as 3.94

Briefly, Final pH measured for C[C@]1(O)C[C@@H](c2nc(-c3ccc4ccc(-c5ccccc5)nc4c3)c3c(N)nccn32)C1 [Linsitinib free base, reference compound] : 4.18

---

Below, each of the compounds is paired with its reported solubility value.
- test: pH-solubility of linsitinib free base and selected salts (pH 1.5 to 6.5, overnight equilibration, HPLC)
- Format: physicochemical
- assay-context: aqueous solution, pH 6, aqueous buffer, thermodynamic from solid, target pH 6.0; overnight equilibration; read-out: Solubility
Your answer should be a plain number; it is taken to be in µg/mL.

compound	solubility (µg/mL)
C[C@]1(O)C[C@@H](c2nc(-c3ccc4ccc(-c5ccccc5)nc4c3)c3c(N)nccn32)C1 [Linsitinib free base, reference compound]	1
C[C@]1(O)C[C@@H](c2nc(-c3ccc4ccc(-c5ccccc5)nc4c3)c3c(N)nccn32)C1.O=P(O)(O)O [Phosphate 1]	4.6

// sample C[C@]1(O)C[C@@H](c2nc(-c3ccc4ccc(-c5ccccc5)nc4c3)c3c(N)nccn32)C1.O=C(O)C[C@H](O)C(=O)O [L-Malate 1] , its solubility was 122

get_value(item= CCS(=O)(=O)O.C[C@]1(O)C[C@@H](c2nc(-c3ccc4ccc(-c5ccccc5)nc4c3)c3c(N)nccn32)C1 [Esylate 2] , readout=solubility) returns 700
